Target: human c-Met (HGFR), full length, on the cell surface (human, UniProt P08581 25-1390)
Sequence (P08581 25-1390 limits assumed): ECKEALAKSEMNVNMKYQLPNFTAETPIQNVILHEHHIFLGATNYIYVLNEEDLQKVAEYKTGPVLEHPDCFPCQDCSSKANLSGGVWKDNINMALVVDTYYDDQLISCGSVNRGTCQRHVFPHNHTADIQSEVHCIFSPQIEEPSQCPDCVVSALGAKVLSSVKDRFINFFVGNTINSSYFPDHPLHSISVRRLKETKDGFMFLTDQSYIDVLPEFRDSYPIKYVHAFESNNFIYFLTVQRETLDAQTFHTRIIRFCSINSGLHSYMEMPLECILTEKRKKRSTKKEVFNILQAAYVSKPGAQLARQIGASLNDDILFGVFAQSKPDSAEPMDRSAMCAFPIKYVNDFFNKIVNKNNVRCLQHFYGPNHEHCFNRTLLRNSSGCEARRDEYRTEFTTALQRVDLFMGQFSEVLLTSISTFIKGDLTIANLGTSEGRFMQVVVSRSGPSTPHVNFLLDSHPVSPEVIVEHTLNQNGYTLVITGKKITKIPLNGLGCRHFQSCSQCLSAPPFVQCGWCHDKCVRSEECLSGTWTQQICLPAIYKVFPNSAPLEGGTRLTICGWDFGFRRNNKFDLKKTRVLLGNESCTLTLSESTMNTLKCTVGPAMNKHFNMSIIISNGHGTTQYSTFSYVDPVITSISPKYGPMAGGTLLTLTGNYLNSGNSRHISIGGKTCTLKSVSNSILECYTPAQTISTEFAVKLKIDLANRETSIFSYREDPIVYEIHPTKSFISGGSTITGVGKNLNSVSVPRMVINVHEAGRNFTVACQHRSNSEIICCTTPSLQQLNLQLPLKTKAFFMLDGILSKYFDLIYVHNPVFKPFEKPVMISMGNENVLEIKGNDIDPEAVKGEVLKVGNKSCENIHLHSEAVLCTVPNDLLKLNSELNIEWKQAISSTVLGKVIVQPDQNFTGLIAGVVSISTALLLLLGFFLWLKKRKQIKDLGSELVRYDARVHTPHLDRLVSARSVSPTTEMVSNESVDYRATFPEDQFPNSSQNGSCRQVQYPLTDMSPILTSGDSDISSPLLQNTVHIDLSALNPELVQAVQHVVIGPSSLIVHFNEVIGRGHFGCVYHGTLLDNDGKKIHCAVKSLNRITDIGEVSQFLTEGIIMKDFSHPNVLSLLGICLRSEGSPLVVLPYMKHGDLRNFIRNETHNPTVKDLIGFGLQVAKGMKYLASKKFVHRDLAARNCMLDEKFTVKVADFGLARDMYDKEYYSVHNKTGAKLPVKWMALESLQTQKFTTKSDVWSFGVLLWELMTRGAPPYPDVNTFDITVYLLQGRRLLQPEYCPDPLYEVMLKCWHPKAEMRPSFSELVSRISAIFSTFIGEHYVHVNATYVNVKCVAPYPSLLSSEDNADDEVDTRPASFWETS
Assay: cell-based or functional assay
# IC50 1, in vitro cytotoxicity, PC-3, -HGF per record follows
readout.kind: IC50 1, in vitro cytotoxicity, PC-3, -HGF (pM)

[[record]]
binder = "ADC2 (antibody, human IgG1, kappa, V domains shown, vc-seco-DUBA linker-drug on the engineered cysteine at HC position 41 (Kabat); DAR 1.7) VH: QVQLQQSGAELVRPGASVKLSCKASGYVFPDYEMHWVKQTCVHGLEWIGAFDPETGDTTYNQNFKGKATLTADKASSTAYMDLRSLTSGDSAVYYCARDYKYLYYYAMDNWGQGTSVTVSS VL: QIVLTQSPAIMSASLGERVTMTCTASSSITSSYLHWYQQKPGSSPKLWIYSTTNLASGVPGRFSGSGSGTSFSLTISSMEAEDAATYYCHQYRRSPLTFGAGTKLELKR"
experimental_result = 50

[[record]]
binder = "ADC2a (antibody, human IgG1, kappa, V domains shown, vc-seco-DUBA linker-drug on the engineered cysteine at HC position 41 (Kabat); DAR 1.7) VH: QVQLVQSGAELRKPGSSVKVSCRASGYVFPDYEMHWVRQACGQGLEWMGAFDPETGDTTYNQNFKGRVTIAADKSTSTAYMELRSLRSEDTAIYYCARDYKYLYYYAMDNWGQGTMVTVSS VL: EIVLTQSPSLLSASIGDRVTIPCTASSSITSSYLHWYQQKPGKAPKLLIYSTTNLASGVPSRFSGSGSGTEFTLTISSLQPEDFATYYCHQYRRSPLTFGGGTKLEIKR"
experimental_result = 60

[[record]]
binder = "ADC2b (antibody, human IgG1, kappa, V domains shown, vc-seco-DUBA linker-drug on the engineered cysteine at HC position 41 (Kabat); DAR 1.7) VH: QVQLVQSGAEVKKPGSSVKVSCKASGYVFPDYEMHWVRQACGQGLEWMGAFDPETGDTTYNQNFKGRVTITADKSTSTAYMELSSLRSEDTAVYYCARDYKYLYYYAMDNWGQGTTVTVSS VL: DIQMTQSPSSLSASVGDRVTITCTASSSITSSYLHWYQQKPGKAPKLLIYSTTNLASGVPSRFSGSGSGTDFTLTISSLQPEDFATYYCHQYRRSPLTFGGGTKLEIKR"
experimental_result = 50

[[record]]
binder = "ADC3b (antibody, human IgG1, kappa, V domains shown, vc-seco-DUBA linker-drug on the engineered cysteine at HC position 41 (Kabat); DAR 1.9, Antibody-drug conjugate of mAb3b; also called mAb3b-vc-seco-DUBA) VH: QVQLVQSGAEVKKPGASVKVSCKASGYTFTDYYLNWVRQACGQGLEWMGLIFPGNDKTEYSEKFKGRVTLTTDTSISTAYMELSSLTSDDTALYYCSGGDYGGFVYWGQGTLVTVSS VL: DIQMTQSPSSLSASVGDRVTISCGASENIYGALNWYQQQPGKAPKVLIFGATNLADGVPSRFSGSGSGTDFTLTISSLQPEDFATYYCQNVLSSPLTFGQGTKLEIKR"
experimental_result = 50

[[record]]
binder = "ADC1a (antibody, human IgG1, kappa, V domains shown, vc-seco-DUBA linker-drug on the engineered cysteine at HC position 41 (Kabat); DAR 1.7) VH: QVQLVQSGAEVKKPGASVKVSCKASGYIFTDYFMNWVRQACGQGLEWMGRVNPKNGDITYNQKFRGRVSLTKDTSINTAYMELSGLTSDDTAIYYCAYDGYYDGMDFWGQGTSVTVSS VL: ELVMTQSPSSLSASVGDRVTITCRANSSVSSNFLHWYQQKPGKAPKLLISSTSNLAFGVPSRFSGTGSGTDFSLTISSLQPEDFAIYYCHQYSGHPFTFGQGTKLEIKR"
experimental_result = 600

[[record]]
binder = "ADC2c (antibody, human IgG1, kappa, V domains shown, vc-seco-DUBA linker-drug on the engineered cysteine at HC position 41 (Kabat); DAR 1.7) VH: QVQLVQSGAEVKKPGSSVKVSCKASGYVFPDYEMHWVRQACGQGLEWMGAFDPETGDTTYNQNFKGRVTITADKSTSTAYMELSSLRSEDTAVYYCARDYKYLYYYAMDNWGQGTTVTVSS VL: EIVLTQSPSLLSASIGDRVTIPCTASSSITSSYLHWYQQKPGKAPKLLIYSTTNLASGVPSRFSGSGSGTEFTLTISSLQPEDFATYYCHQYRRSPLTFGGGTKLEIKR"
experimental_result = 80

[[record]]
binder = "ADC3e (antibody, human IgG1, kappa, V domains shown, vc-seco-DUBA linker-drug on the engineered cysteine at HC position 41 (Kabat); DAR 1.9) VH: QVQLQESGAEVKKPGASVKVSCKASGYTFTDYYLNWVRQACGQGLEWMGLIFPGNDKTEYSEKFKGRVTMTRDTSTSTVYMELSSLRSEDTAVYYCSGGDYGGFVYWGQGTLVTVSS VL: DIQMTQSPSSLSASVGDRVTITCGASENIYGALNWYQQKPGKAPKLLIYGATNLADGVPSRFSGSGSGTDFTLTISSLQPEDVATYYCQNVLSSPLTFGSGTKLEIKR"
experimental_result = 40


Hey, just so you know, these numbers are from patent US20240376214A1.
